Tested on: NCI-H23 lung
Assay: NCI tumour cell line growth inhibition, 48 h
// reported TGI per item

compound	reported.relation	TGI (µM)
O1[As]2O[As]3O[As]1O[As](O2)O3	=	4.98
CC(=O)OC(C)(C)CCC(=O)[C@](C)(O)[C@H]1[C@H](O)C[C@@]2(C)[C@@H]3CCc4c(cc(OC5OC(CO)C(O)C(O)C5O)c(O)c4C)C3(C)C(=O)C[C@]12C (stereo partly specified)	>	100
O=C1c2ccc3c4c(ccc(c24)C(=O)N1CCCNCc1ccccc1Cl)C(=O)N(CCCNCc1ccccc1Cl)C3=O	=	0.86
Nc1ncnc2c1c(-c1ccc(Oc3ccccc3)cc1)nn2C[C@@H]1SSC[C@H]1O	=	8.17
COc1cccc(NC(=O)CC(=O)N2N=C(N3c4ccccc4Sc4ccccc43)CC2c2ccccc2)c1 (stereo unspecified)	>	100
O=c1cc(-c2cccnc2)[nH]c2cc3c(cc12)OCO3	>	53.5
CC(=O)Oc1ccc2c3c1O[C@H]1[C@H](O)CC[C@@]4(O)[C@@H](C2)N(C)CC[C@]314	>	100
C#CC1(O)CCCCCCCCC2(CCCCCCCC1)OCCO2	=	33.9
CCOC(=O)c1cc2c(n1Cc1cc(OC)c(OC)c(OC)c1)-c1oncc1CCC2	>	43.2
COC(=O)c1cc2ccccc2c2c3c(ccc12)OCO3	>	1000
O=[N+]([O-])c1ccc(N=Nc2ccc(O)c3ccccc23)cc1	=	6.88
CCn1cnnc1-c1nsc2ccccc12	>	100
COc1cc2c(cc1OC)[C@@H](Nc1ccc(F)cc1)C1COC(=O)[C@@H]1C2c1cc(OC)c(O)c(OC)c1 (stereo partly specified)	=	18.6
CCCCCCCCC/C=C1\CCC(CN(C)C)C1=O (stereo unspecified)	=	5.61
COc1ccc(COC2CC(OC)OC(C)C2OC(=O)c2ccccc2)cc1 (stereo unspecified)	>	92.6
CC1C(C#N)(C#N)C(C#N)=C(N)C1(Cl)[N+](=O)[O-] (stereo unspecified)	=	35.3
CN(C)c1ccc(C=C2C(=O)NC(=S)NC2=O)c2ccccc12	>	100
O=[N+]([O-])c1ccc(NNN=Nc2ccc(-c3nc4ccccc4s3)cc2)c([N+](=O)[O-])c1	=	59.3
Oc1c(Cl)c(Cl)c(O)c2c1CCCC2	=	40.8
CCOC(=O)/C(O)=C(/C(=O)OC)c1ccc(Cl)cc1	>	100
COc1ccc(-c2c(C#N)c(S)n(NS(=O)(=O)c3ccccc3)c(=O)c2C#N)cc1	>	100
